The measured values listed here are drawn from the MegaScale stability set (Tsuboyama et al. 2023).

B1: HEEH_KT_rd6_3546 (parent)
chain: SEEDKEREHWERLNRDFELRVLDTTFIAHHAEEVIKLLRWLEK

- Variants of: B1
- test description: folding stability dG (cDNA display proteolysis); higher = more stable
- experimental conditions: PBS, room temperature
Provide the reported folding stability dG of each item.

-- ask Item under review: R39M . Reported folding stability dG?
-- reply 1.21 kcal/mol

-- ask Item under review: W40A . Reported folding stability dG?
-- reply 0.156 kcal/mol

-- ask Item under review: R7F . Reported folding stability dG?
-- reply 1.13 kcal/mol

-- ask Item under review: R20Q . Reported folding stability dG?
-- reply 1.05 kcal/mol

-- ask Item under review: V34Q . Reported folding stability dG?
-- reply -0.202 kcal/mol

-- ask Item under review: W10E . Reported folding stability dG?
-- reply 1.05 kcal/mol
